- TEST_DETAILS: TLR3 IRF3 reporter activation blockers – cell-based, poly I:C stimulus, luciferase, 10K MLSCN set, primary screen (AID 602277)
- MEASUREMENT_CONTEXT: HEK293-TLR3 RL24 IRF3 luciferase reporter, at 10 µM, stronger effect = higher value
inhibition by entry:
OBSERVED_PROPERTY: inhibition (%)

> print(dat)
                                    molecule  measured.number
 1             O=C1C(c2ccncc2)=C(O)c2ccccc21           -0.387
 2    O=C(CN1CCN(Cc2ccccc2)CC1)Nc1ccc(Cl)cn1             29.5
 3     Cc1ccc(N2CCN(C(=O)c3ccccc3)CC2)c(C)c1            0.924
 4  Cc1cc(NC(=O)CSc2nc3c(c(=O)n2Cc2ccccc2)SC(C)C3)no1 (stereo unspecified)            -5.37
 5  O=C(CN(Cc1ccc2c(c1)OCO2)C(=O)CNS(=O)(=O)c1ccccc1)NCc1ccco1             36.2
 6     O=C(c1cc2cc(Cl)cc(Cl)c2oc1=O)N1CCOCC1             30.3
 7  COCCNC(=O)C(c1ccc(C)o1)N(Cc1ccc(F)cc1)C(=O)Cn1nnc2ccccc21 (stereo unspecified)             24.6
 8  Cc1nn(C)c(C)c1NC(=O)CCSc1nc(-c2ccco2)cc(C(F)(F)F)n1            -10.1
 9         NC(=O)c1cccc(S(=O)(=O)N2CCCCC2)c1             31.6
10  COC(=O)C1=C(CSCc2ccco2)NC(=O)NC1c1cc(C)ccc1C (stereo unspecified)            -1.57
11  CCN(C(=O)CCc1nc(-c2ccccc2F)no1)c1cc(OC)ccc1OC              -31
